Recorded measurements of IC50, one per entry
Molecular target: PTP1B (Homo sapiens, UniProt P18031)
Sequence (P18031 whole entry): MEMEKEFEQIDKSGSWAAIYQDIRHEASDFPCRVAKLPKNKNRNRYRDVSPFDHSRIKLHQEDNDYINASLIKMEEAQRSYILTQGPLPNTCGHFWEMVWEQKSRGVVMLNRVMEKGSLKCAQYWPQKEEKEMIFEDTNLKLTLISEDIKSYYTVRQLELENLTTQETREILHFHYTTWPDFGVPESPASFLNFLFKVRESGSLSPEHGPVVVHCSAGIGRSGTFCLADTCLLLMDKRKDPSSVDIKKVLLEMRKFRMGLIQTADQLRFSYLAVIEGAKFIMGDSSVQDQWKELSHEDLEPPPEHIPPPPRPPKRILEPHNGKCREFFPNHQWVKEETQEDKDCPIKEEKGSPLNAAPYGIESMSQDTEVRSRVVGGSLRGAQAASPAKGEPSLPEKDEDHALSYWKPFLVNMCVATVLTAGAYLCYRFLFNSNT

# smiles, IC50
rows = [
    ("O=C1CN(c2cc3nc(OCCc4ccc(F)cc4)ccc3cc2O)S(=O)(=O)N1", "≤ 1000 nM"),
]

Query compound follows.
Prompt line: # get_value(readout='IC50', item= `Cn1c(=O)c(O)cc2c(F)c(N3CC(=O)NS3(=O)=O)c(O)cc21` )
Response line: ≤ 1000 nM

###

# pIC50 listing for each entry below
Sequence of the target: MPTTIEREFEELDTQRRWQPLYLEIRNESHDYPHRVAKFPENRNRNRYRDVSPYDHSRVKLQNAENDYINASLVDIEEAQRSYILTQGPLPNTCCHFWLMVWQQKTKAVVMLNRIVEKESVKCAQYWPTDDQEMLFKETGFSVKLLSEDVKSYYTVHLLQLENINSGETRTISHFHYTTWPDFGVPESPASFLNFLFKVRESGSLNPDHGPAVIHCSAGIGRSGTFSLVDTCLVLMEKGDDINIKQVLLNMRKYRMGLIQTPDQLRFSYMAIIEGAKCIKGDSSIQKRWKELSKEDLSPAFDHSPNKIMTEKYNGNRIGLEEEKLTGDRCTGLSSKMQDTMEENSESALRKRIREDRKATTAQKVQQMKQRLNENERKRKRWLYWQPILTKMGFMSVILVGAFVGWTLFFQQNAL
pIC50: −log10 of the molar value.

The cases that follow already have their pIC50 on record.
# compound, pIC50
data = [
    ("CC(C)CCN1Cc2cc(C3CC(=O)NS3(=O)=O)c(O)cc2CC1=O (stereo not shown) [Compound 112]", "< 5.00"),
    ("C[C@H](Nc1cc2cc(N3CC(=O)NS3(=O)=O)c(O)cc2n(C)c1=O)c1ccccc1 [Compound 194]", "5.00 to 6.00"),
    ("O=C1CN(c2cc3nc(-c4cnn(CC5CC5)c4)ccc3cc2O)S(=O)(=O)N1 [Compound 188]", "≥ 6.00"),
    ("CC(C)CCN1Cc2cc(C3CC(=O)NS3(=O)=O)c(O)cc2N(C)C1=O (stereo not shown) [Compound 111]", "< 5.00"),
    ("CC(C)OCCNc1ccc2cc(O)c(N3CC(=O)NS3(=O)=O)cc2n1 [Compound 138]", "≥ 6.00"),
    ("CC(C)CCNc1ccc2cc(O)c(N3CC(=O)NS3(=O)=O)cc2n1 [Compound 113]", "≥ 6.00"),
]

Prompt line: Give its pIC50 value. Item: O=C1CN(c2c(O)cc3ccc(OCCC4CCCC4)nc3c2F)S(=O)(=O)N1 [Compound 158]
Response line: ≥ 6.00
